Tested on: SR
Test: NCI tumour cell line growth inhibition, 48 h
Calls of active or inactive are those of the source. No stated cut-off is given here; in the data, active = GI50 up to about 1.1 µM and inactive = higher.
Outcome codes: active, inactive

- O/N=C1\CC2(N3CCOCC3)CCC1(Cc1ccccc1)CC2: inactive
- O=S(=O)(c1cc(Cl)ccc1Cl)n1ccnc1: inactive
- CCCCCCCCCCCCCC[C@@H](O)[C@H]1CC[C@H]([C@H]2CC[C@H]([C@H](O)CCCCCC[C@@H](O)CC3=C[C@H](C)OC3=O)O2)O1: active
- CC1=C(C#N)C(C#N)(C#N)C(NN(C)C)C1 (stereo not drawn): inactive
- O=C1c2cc3c(cc2NC(c2ccccc2F)C1O)OCO3 (stereo not drawn): inactive
- CCc1nc(N)nc(N)c1-c1ccc2nn(-c3ccccc3)[n+]([O-])c2c1: inactive
- O=C(c1ccccc1)C1N=NCC1c1ccc([N+](=O)[O-])cc1 (stereo not drawn): inactive
- C=CC1(C)CCC2C(=CCC3C2(C)CC(O)C(O)C3(C)COC2OC(CO)C(O)C(O)C2O)C1 (stereo not drawn): inactive
- COc1cc(CNc2nc3ccccc3nc2-c2cccs2)cc(OC)c1OC: inactive
- CCOP(=O)(OCC)C(F)(F)Cc1cnc(C)c2c1COC(C)(C)O2: inactive
- COc1ccc(C(CC2(c3ccc(OC)cc3)SCCCS2)NC(C)=O)cc1 (stereo not drawn): inactive
- CC(C)(C)C1CCN(C(=O)c2ccccc2)CC1: inactive
- CC(C)(C)NNc1c([N+](=O)[O-])cnn(-c2ccccc2)c1=O: inactive
